target: XIAP BIR2-3 (His-BIR2-3 (125-356, C202A/C213G, XIAP)) (Homo sapiens (Human), UniProt P98170, C202A/C213G)
Sequence (P98170 whole entry C202A/C213G, looked up): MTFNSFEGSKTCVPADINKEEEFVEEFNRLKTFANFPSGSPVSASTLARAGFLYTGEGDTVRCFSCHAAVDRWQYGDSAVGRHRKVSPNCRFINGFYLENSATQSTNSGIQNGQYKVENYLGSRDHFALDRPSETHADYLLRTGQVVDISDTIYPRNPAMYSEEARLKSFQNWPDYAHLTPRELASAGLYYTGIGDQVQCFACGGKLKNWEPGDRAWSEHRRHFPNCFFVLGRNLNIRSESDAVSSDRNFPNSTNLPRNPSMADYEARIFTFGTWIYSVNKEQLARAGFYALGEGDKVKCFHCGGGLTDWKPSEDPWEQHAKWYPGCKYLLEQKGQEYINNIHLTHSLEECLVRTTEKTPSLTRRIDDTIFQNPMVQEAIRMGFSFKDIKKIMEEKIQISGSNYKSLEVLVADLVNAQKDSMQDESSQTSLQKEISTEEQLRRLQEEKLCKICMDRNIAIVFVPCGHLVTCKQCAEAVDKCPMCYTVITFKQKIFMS
For each entry below, report its IC50 value.
All answers are understood in nM, so give the number only.

Prompt: Fill in: IC50 of "CN[C@@H](C)C(=O)N[C@@H](Cc1ccc(C#Cc2ccc(C(=O)N[C@H]3C[C@@H](C(=O)N[C@@H]4CCCc5ccccc54)N(C(=O)[C@@H](NC(=O)[C@H](C)NC)C(C)(C)C)C3)cc2)cc1)C(=O)N1C[Si](C)(C)C[C@H]1C(=O)N[C@@H]1CCCc2ccccc21" is ___
Response: 341

Prompt: So what does the record say about IC50 for "CN[C@@H](C)C(=O)N[C@@H](Cc1ccc(NC(=O)N[C@H]2C[C@@H](C(=O)N[C@@H]3CCCc4ccccc43)N(C(=O)[C@@H](NC(=O)[C@H](C)NC)C(C)(C)C)C2)cc1)C(=O)N1C[Si](C)(C)C[C@H]1C(=O)N[C@@H]1CCCc2ccccc21" ?
Response: 6

Prompt: Fill in the blank: the reported IC50 of CN[C@@H](C)C(=O)NC(Cc1ccc(C(=O)Nc2ccc(C(=O)N[C@H]3C[C@@H](C(=O)NC4CCCc5ccccc54)N(C(=O)[C@@H](NC(=O)[C@H](C)NC)C(C)(C)C)C3)cc2)cc1)C(=O)N1C[Si](C)(C)C[C@H]1C(=O)NC1CCCc2ccccc21 (stereo partly shown) is ____.
Response: 4

Prompt: GET /values?readout=IC50&item= CN[C@@H](C)C(=O)NC(Cc1ccc(NC(=O)c2ccc(C(=O)N[C@H]3C[C@@H](C(=O)NC4CCCc5ccccc54)N(C(=O)[C@@H](NC(=O)[C@H](C)NC)C(C)(C)C)C3)cc2)cc1)C(=O)N1C[Si](C)(C)C[C@H]1C(=O)NC1CCCc2ccccc21 (stereo partly shown)
Response: 4
